- System name: T1, human Claudin18.2 (human, UniProt P56856 1-261)
- T1 sequence (looked up): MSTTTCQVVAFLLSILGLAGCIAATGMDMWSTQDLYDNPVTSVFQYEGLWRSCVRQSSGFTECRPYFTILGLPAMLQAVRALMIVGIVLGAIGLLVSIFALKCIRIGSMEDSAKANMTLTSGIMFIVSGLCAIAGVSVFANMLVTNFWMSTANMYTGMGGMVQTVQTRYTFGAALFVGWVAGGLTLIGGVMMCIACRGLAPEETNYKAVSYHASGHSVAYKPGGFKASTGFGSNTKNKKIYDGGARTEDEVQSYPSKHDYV
- Procedure summary: cell-based or functional assay
Metric: IC50 of in vitro cell killing on NUGC4-hClaudin18.2 cells (CCK-8 cell viability, 120 h) (nM)
Give just the numeric value; nM need not be written.

# Binder, Result number
rows = [
    ("9D1-LD-57 (antibody, human IgG1, kappa, V domains shown, LD-57 linker-drug (MMAE) on partially reduced interchain cysteines (Conjugation Method 2, DAR 4)) VH: QIQLVQSGAEVKKPGASVKISCKASGYSFTDYHMNWVRQAPGKGLEWIGNIDPYYGSPTYNHKFKGRVTLTVDTSTSTAYMELSSLRSEDTAVYYCANYGRGNSFPYWGQGTLVTVSS VL: DIVMTQSPSSLAVSLGERATINCKSSQSLLNSGNQRNYLTWYQQKPGQPPKLLIYWASTRESGVPDRFSGSGSGTDFTLTISSLQAEDVAVYYCQNDYSFPFTFGQGTKLEIKR", 0.053),
    ("9D1-LD-65 (antibody, human IgG1, kappa, V domains shown, LD-65 linker-drug (Exatecan) on reduced interchain cysteines (Conjugation Method 1, DAR 8)) VH: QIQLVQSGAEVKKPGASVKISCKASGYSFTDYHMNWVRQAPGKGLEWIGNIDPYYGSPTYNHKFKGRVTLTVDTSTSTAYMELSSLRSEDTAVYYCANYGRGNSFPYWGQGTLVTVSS VL: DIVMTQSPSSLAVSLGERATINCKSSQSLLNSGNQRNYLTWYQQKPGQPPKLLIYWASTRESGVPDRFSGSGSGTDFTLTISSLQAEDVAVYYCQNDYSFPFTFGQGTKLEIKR", 0.701),
]

# ---- query binder ----
Return reported IC50 of in vitro cell killing on NUGC4-hClaudin18.2 cells (CCK-8 cell viability, 120 h); argument: 9D1-LD-73 (antibody, human IgG1, kappa, V domains shown, LD-73 linker-drug (Exatecan, PEG side chain) on reduced interchain cysteines (Conjugation Method 1, DAR 8)) VH: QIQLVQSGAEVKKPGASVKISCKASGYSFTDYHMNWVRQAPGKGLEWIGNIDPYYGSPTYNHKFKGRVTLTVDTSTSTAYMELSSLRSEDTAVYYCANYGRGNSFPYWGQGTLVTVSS VL: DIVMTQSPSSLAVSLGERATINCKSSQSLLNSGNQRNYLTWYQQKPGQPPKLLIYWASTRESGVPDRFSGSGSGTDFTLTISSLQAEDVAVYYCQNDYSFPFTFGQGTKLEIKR
1.27
